Parameter: aptazyme ON/OFF ratio. Scope: all listed entries.
B1: Pistol ribozyme (parent)
chain: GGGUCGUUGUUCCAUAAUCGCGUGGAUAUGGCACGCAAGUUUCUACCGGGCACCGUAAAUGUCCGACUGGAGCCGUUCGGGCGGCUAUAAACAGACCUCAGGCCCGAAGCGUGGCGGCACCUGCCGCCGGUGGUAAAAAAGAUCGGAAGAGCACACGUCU

# Variants of: B1
# experiment.description: aptazyme ON/OFF ratio, guanine; higher = stronger switching; co-transcriptional cleavage with and without guanine
readout.label: aptazyme ON/OFF ratio

> print(dat)
                        mutant.name          readout.label  result.value
 1                U7G G9C U10G C13G  aptazyme ON/OFF ratio          1.23
 2      U7G G9U U10G U11G C12U C13G  aptazyme ON/OFF ratio          1.05
 3          U7C U10C U11G C12G C13U  aptazyme ON/OFF ratio           1.1
 4           U8G G9C U10A C12G C13A  aptazyme ON/OFF ratio          1.16
 5      U7A U8G U10A U11A C12G C13G  aptazyme ON/OFF ratio          1.26
 6       U7G U8C G9U U10G C12A C13A  aptazyme ON/OFF ratio          1.37
 7      U8C G9C U10G U11A C12A C13U  aptazyme ON/OFF ratio           1.1
 8            U7C U8G G9A U10G C12U  aptazyme ON/OFF ratio          1.37
 9               U7C U10G C12G C13A  aptazyme ON/OFF ratio          1.17
10  U7C U8G G9C U10C U11G C12U C13G  aptazyme ON/OFF ratio          1.09
11       U7G U8A G9U U10G U11C C13U  aptazyme ON/OFF ratio          1.06

The measured values listed here are drawn from the RNAGym collection of RNA variant scans (doi:10.1021/acssynbio.7b00057).
